Answer each item with its documented Ki.
# testedOn: BRD4 (BDII_E352-M457) (Homo sapiens, UniProt O60885)
# Construct: proliferation; Protocol
# procedureText: TR-FRET bromodomain binding assay, second bromodomain of BRD4
# appliedConditions: His-tagged BD2, 30 nM Alexa647 probe; TR-FRET protocol A-E given per row
Give bare numbers, in nM.

A selection of reference data follows.
>  <molecule>
Cn1cc(-c2cc(NC(=O)Cc3noc4ccccc34)ccc2Oc2ccc(F)cc2F)c2cc[nH]c(=O)c21 [Example 158]

>  <testedOn>
BRD4 (BDII_E352-M457) (Homo sapiens, UniProt O60885)

>  <unitsOfMeasure>
nM

>  <obsValue>
153

$$$$
>  <molecule>
Cn1cc(-c2cc(CNCC3CC3)ccc2Oc2ccc(F)cc2F)c2cc[nH]c(=O)c21 [Example 118]

>  <testedOn>
BRD4 (BDII_E352-M457) (Homo sapiens, UniProt O60885)

>  <unitsOfMeasure>
nM

>  <obsValue>
382

$$$$
>  <molecule>
Cn1ccc2c(-c3cc(S(C)(=O)=O)ccc3OCC3CC3(F)F)cn(C)c2c1=O (stereo not shown) [Example 43]

>  <testedOn>
BRD4 (BDII_E352-M457) (Homo sapiens, UniProt O60885)

>  <unitsOfMeasure>
nM

>  <obsValue>
2540

$$$$

Please report the recorded Ki for Cn1cc(-c2cc(S(C)(=O)=O)ccc2OCC2CCC(F)(F)CC2)c2cc[nH]c(=O)c21 [Example 41] .
406

----------
For each entry below, report its Ki value.
# testedOn: BRD4 (BDI_K57-E168) (Homo sapiens, UniProt O60885)
# Construct: BD1: amino acids K57-E168
# procedureText: TR-FRET bromodomain binding assay, first bromodomain of BRD4
# appliedConditions: His-tagged BD1, 100 nM Alexa647 probe; TR-FRET protocol A-E given per row
Give bare numbers, in nM.

Reference set (5 entries):
>  <compoundSmiles>
COC(=O)/C=C/N(c1ccc(F)cc1)c1ccc(CS(C)(=O)=O)cc1-c1cn(C)c2c(=O)[nH]ccc12

>  <unitsOfMeasure>
nM

>  <Ki>
109

$$$$
>  <compoundSmiles>
CCS(=O)(=O)Nc1ccc(Oc2ccc(F)cc2F)c(-c2cn(C)c3c(=O)[nH]c(C(=O)NCCN4CCN(C)CC4)cc23)c1

>  <unitsOfMeasure>
nM

>  <Ki>
2.05

$$$$
>  <compoundSmiles>
CCS(=O)(=O)c1ccc(Oc2cnc(C)cc2C)c(-c2cn(C)c3c(=O)[nH]ccc23)c1

>  <unitsOfMeasure>
nM

>  <Ki>
131

$$$$
>  <compoundSmiles>
Cn1cc(-c2cc(S(C)(=O)=O)ccc2NCC(F)(F)F)c2cc[nH]c(=O)c21

>  <unitsOfMeasure>
nM

>  <Ki>
773

$$$$
>  <compoundSmiles>
CCS(=O)(=O)c1ccc(Oc2cncc(C)n2)c(-c2cn(C)c3c(=O)[nH]ccc23)c1

>  <unitsOfMeasure>
nM

>  <Ki>
697

$$$$

For the 2 compounds below, give their Ki values.
1. Cn1cc(-c2cc(CNS(=O)(=O)Cc3ccc(C(F)(F)F)cc3)ccc2Oc2ccc(F)cc2F)c2cc[nH]c(=O)c21
2. CC(=O)N1CCC(Oc2ccc(S(C)(=O)=O)cc2-c2cn(C)c3c(=O)[nH]ccc23)CC1

1: 49; 2: 45

----------
# testedOn: BRD4 (BDII_E352-M457) (Homo sapiens)
# Construct: proliferation; Protocol; made in house
# procedureText: TR-FRET bromodomain binding assay, second bromodomain of BRD4
# appliedConditions: His-tagged BD2, 30 nM Alexa647 probe; TR-FRET protocol A-E given per row
pKi: −log10 of the molar value.
We use 7 as the dividing line for pKi: on or above the line is y, below is n.

>  <compound>
Cn1cc(-c2cc(S(C)(=O)=O)ccc2NCc2ccc(C#N)cc2)c2cc[nH]c(=O)c21 [Example 46]

>  <categoryLabel>
n

$$$$
>  <compound>
COc1ccc(Oc2cccc(CNc3ccc(Oc4ccc(F)cc4F)c(-c4cn(C)c5c(=O)[nH]ccc45)c3)c2)cc1 [Example 168]

>  <categoryLabel>
n

$$$$

Given Cn1cc(-c2cc(F)cnc2Nc2ccc(F)cc2)c2cc[nH]c(=O)c21 [Example 145] , state whether its pKi is at least 7.
n

What do we get for Cn1cc(-c2cc(NS(C)(=O)=O)ccc2Oc2ccc(C#N)cc2)c2cc[nH]c(=O)c21 [Example 16] ?
y

What about CCS(=O)(=O)Nc1ccc(Oc2ccc(F)cc2F)c(-c2cn(C)c3c(=O)[nH]c(C4CCN(C(=O)C5CC5)CC4)cc23)c1 [Example 185] ?
y

Also check CCS(=O)(=O)c1ccc(Oc2ccc(Cl)cc2Cl)c(-c2cn(C)c3c(=O)[nH]ccc23)c1 [Example 82]
y

Follow-up entry: CCS(=O)(=O)Nc1ccc(Oc2ccc(F)cc2F)c(-c2cn(C)c3c(=O)[nH]c(C(=O)NCc4ccoc4)cc23)c1 [Example 201]
y

----------
# testedOn: BRD4 (BDII_E352-M457) (Homo sapiens, UniProt O60885)
# Construct: proliferation; Protocol
# procedureText: TR-FRET bromodomain binding assay, second bromodomain of BRD4
# appliedConditions: His-tagged BD2, 30 nM Alexa647 probe; TR-FRET protocol A-E given per row
# Source text: A time-resolved fluorescence resonance energy transfer (TR-FRET) assay was used to determine the affinities of compounds of the Examples listed in Table 1 for each bromodomain of BRD4. His-tagged first (BD1: amino acids K57-E168) and second (BD2: amino acids E352-E168) bromodomains of BRD4 were expressed and purified. An Alexa647-labeled BET-inhibitor was used as the fluorescent probe in the assay. […]
Binarize Ki at 20 nM; below is label 1, at or above is label 0.

>  <compound>
CCc1cc2c(-c3cc(CS(C)(=O)=O)ccc3Oc3ccc(F)cc3F)cn(C)c2c(=O)[nH]1 [Example 92]

>  <testedOn>
BRD4 (BDII_E352-M457) (Homo sapiens, UniProt O60885)

>  <categoryLabel>
label 1

$$$$
>  <compound>
Cn1cc(-c2cc(S(C)(=O)=O)ccc2Oc2ccccc2)c2cc[nH]c(=O)c21 [Example 18]

>  <testedOn>
BRD4 (BDII_E352-M457) (Homo sapiens, UniProt O60885)

>  <categoryLabel>
label 0

$$$$
>  <compound>
Cn1cc(-c2cc(NS(C)(=O)=O)c(Oc3ccc(F)cc3F)cc2F)c2cc[nH]c(=O)c21 [Example 12]

>  <testedOn>
BRD4 (BDII_E352-M457) (Homo sapiens, UniProt O60885)

>  <categoryLabel>
label 0

$$$$

Ki strictly < 20 nM for this compound? CCS(=O)(=O)Cc1ccc(Oc2ccc(F)cc2F)c(-c2cn(C)c3c(=O)[nH]ccc23)c1 [Example 53]
label 1

Repeat with CCS(=O)(=O)Nc1ccc(Oc2ccc(F)cc2F)c(-c2cn(C)c3c(=O)[nH]c(C4CCN(S(=O)(=O)CC)CC4)cc23)c1 [Example 186]
label 1

Another compound to look at: Cn1cc(-c2cc(CS(=O)(=O)N3CCCCC3)ccc2Oc2ccc(F)cc2F)c2cc[nH]c(=O)c21 [Example 103]
label 1

Another compound to check: CCS(=O)(=O)c1ccc(Oc2ccc(C#N)cc2)c(-c2cn(C)c3c(=O)[nH]ccc23)c1 [Example 78]
label 0

How about Cc1cnc(C(=O)Nc2ccc(Oc3ccc(F)cc3F)c(-c3cn(C)c4c(=O)[nH]ccc34)c2)cn1 [Example 151] ?
label 0

And for Cn1cc(-c2cc(NS(=O)(=O)Cc3ccccc3)ccc2Oc2ccc(F)cc2F)c2cc[nH]c(=O)c21 [Example 180] ?
label 0

Try this compound too: CCS(=O)(=O)Nc1ccc(Oc2ccc(F)cc2F)c(-c2cn(C)c3c(=O)[nH]ccc23)c1 [Example 4]
label 1

And what about the compound Cn1cc(-c2cc(CNS(=O)(=O)c3cc(Cl)sc3Cl)ccc2Oc2ccc(F)cc2F)c2cc[nH]c(=O)c21 [Example 138] ?
label 0

Would you mind doing Cc1noc(C)c1S(=O)(=O)NCc1ccc(Oc2ccc(F)cc2F)c(-c2cn(C)c3c(=O)[nH]ccc23)c1 [Example 140] as well?
label 0

Moving on to Cn1cc(-c2cc(NS(=O)(=O)Cc3cc(F)ccc3Cl)ccc2Oc2ccc(F)cc2F)c2cc[nH]c(=O)c21 [Example 181]
label 0

Try this compound too: Cn1cc(-c2cc(NS(C)(=O)=O)c(Oc3ccc(F)cc3F)cc2Oc2ccc(F)cc2F)c2cc[nH]c(=O)c21 [Example 13]
label 0

Lookup CCS(=O)(=O)Nc1ccc(OC2CCOCC2)c(-c2cn(C)c3c(=O)[nH]ccc23)c1 [Example 7]
label 1

----------
Assign Ki to each entry below.
# testedOn: BRD4 (BDI_K57-E168) (Homo sapiens, UniProt O60885)
# Construct: BD1: amino acids K57-E168
# procedureText: TR-FRET bromodomain binding assay, first bromodomain of BRD4
# appliedConditions: His-tagged BD1, 100 nM Alexa647 probe; TR-FRET protocol A-E given per row

Guide cases for Ki, answers given:
>  <compound>
Cn1cc(-c2cc(CS(C)(=O)=O)ccc2Oc2ccc(F)cc2F)c2cc(Cl)[nH]c(=O)c21 [Example 91]

>  <obsValue>
0.0054 µM

$$$$
>  <compound>
Cn1cc(-c2cc(S(C)(=O)=O)ccc2OC2CCOCC2)c2cc[nH]c(=O)c21 [Example 24]

>  <obsValue>
0.017 µM

$$$$
>  <compound>
CCS(=O)(=O)Nc1ccc(Oc2ccc(F)cc2)c(-c2cn(C)c3c(=O)[nH]ccc23)c1 [Example 15]

>  <obsValue>
0.0033 µM

$$$$
>  <compound>
Cc1cccc(OCC2CC2)c1-c1cn(C)c2c(=O)[nH]ccc12 [Example 50]

>  <obsValue>
1.71 µM

$$$$
>  <compound>
CCS(=O)(=O)c1ccc(Oc2ccc(F)cc2F)c(-c2cn(C)c3c(=O)[nH]ccc23)c1 [Example 49]

>  <obsValue>
0.013 µM

$$$$
>  <compound>
CCS(=O)(=O)c1ccc(Oc2cccnc2)c(-c2cn(C)c3c(=O)[nH]ccc23)c1 [Example 81]

>  <obsValue>
0.081 µM

$$$$
>  <compound>
Cn1cc(-c2cc(CS(N)(=O)=O)ccc2Oc2ccc(F)cc2F)c2cc[nH]c(=O)c21 [Example 96]

>  <obsValue>
0.0069 µM

$$$$
>  <compound>
Cn1cc(-c2cc(S(C)(=O)=O)ccc2OCCC2CC2)c2cc[nH]c(=O)c21 [Example 32]

>  <obsValue>
0.0061 µM

$$$$
>  <compound>
Cn1cc(-c2cc(NC(=O)Cc3ccc(Cl)cc3F)ccc2Oc2ccc(F)cc2F)c2cc[nH]c(=O)c21 [Example 160]

>  <obsValue>
0.101 µM

$$$$
>  <compound>
Cn1cc(-c2cc(S(C)(=O)=O)ccc2OC2CCOC2)c2cc[nH]c(=O)c21 (stereo not drawn) [Example 22]

>  <obsValue>
0.015 µM

$$$$

# per-item lookup of Ki; items listed below
1. Cn1cc(-c2cc(CS(C)(=O)=O)ccc2Nc2ccc(F)cc2F)c2cc[nH]c(=O)c21 [Example 122]
2. Cn1cc(-c2cc(CS(C)(=O)=O)cc(C3CC3)c2Nc2ccc(F)cc2F)c2cc[nH]c(=O)c21 [Example 202]

1: 0.025 µM; 2: 0.00582 µM

Please look at the items below and tell me Ki for each one, in order.
1. Cn1cc(-c2cc(NCc3ccc(C#N)cc3)ccc2Oc2ccc(F)cc2F)c2cc[nH]c(=O)c21 [Example 167]
2. CCS(=O)(=O)c1ccc(Oc2ccc(F)cc2F)c(-c2cn(C)c3c(=O)[nH]c(/C=C(\Cl)CCO)cc23)c1 [Example 126]
3. CNS(=O)(=O)Cc1ccc(Oc2ccc(F)cc2F)c(-c2cn(C)c3c(=O)[nH]ccc23)c1 [Example 100]

["0.0328 µM", "0.0083 µM", "0.0041 µM"]

Record Ki for all entries; do not skip any.
1. CN1CCN(Cc2ccc(Oc3ccc(F)cc3F)c(-c3cn(C)c4c(=O)[nH]ccc34)c2)CC1 [Example 116]
2. CCS(=O)(=O)c1ccc(Oc2ccncc2)c(-c2cn(C)c3c(=O)[nH]ccc23)c1 [Example 74]
3. Cc1ccc(CS(=O)(=O)NCc2ccc(Oc3ccc(F)cc3F)c(-c3cn(C)c4c(=O)[nH]ccc34)c2)cc1 [Example 132]
4. Cn1cc(-c2cc(NS(C)(=O)=O)c(Oc3ccc(F)cc3F)cc2Oc2ccc(F)cc2F)c2cc[nH]c(=O)c21 [Example 13]

["0.093 µM", "> 2.38 µM", "0.249 µM", "0.173 µM"]

Batch lookup, Ki per entry.
1. Cn1cc(-c2cc(S(C)(=O)=O)ccc2O[C@H]2CC[C@@H](O)CC2)c2cc[nH]c(=O)c21 [Example 33]
2. Cn1cc(-c2cc(S(=O)(=O)N3CCCC3)ccc2O[C@H]2CC[C@H](N(C)C)CC2)c2cc[nH]c(=O)c21 [Example 144]
3. CCS(=O)(=O)C(C)c1ccc(Oc2ccc(F)cc2F)c(-c2cn(C)c3c(=O)[nH]ccc23)c1 (stereo not drawn) [Example 55]
4. Cn1cc(-c2cc(CS(=O)(=O)N3CCCCC3)ccc2Oc2ccc(F)cc2F)c2cc[nH]c(=O)c21 [Example 103]
5. Cc1cccnc1CNc1ccc(Oc2ccc(F)cc2F)c(-c2cn(C)c3c(=O)[nH]ccc23)c1 [Example 169]
6. CC(=O)Nc1ccc(C(=O)Nc2ccc(Oc3ccc(F)cc3F)c(-c3cn(C)c4c(=O)[nH]ccc34)c2)cc1 [Example 155]

0.034 µM
0.0082 µM
0.0042 µM
0.0084 µM
0.0265 µM
0.0278 µM
